Origin of values: patent US9498479B2

- PROTOCOL DETAILS: Test compounds' PK assay in ICR mice
- Type: in vivo
- ASSAY SETUP: mouse, plasma; ICR mice, iv, 2 mg/kg; read-out: Vss
QUANTITY MEASURED: Vd (L/kg)

[I] CCOC(=O)C1=C(CN2CC(F)(F)C[C@H]2C(C)CC(=O)O)NC(c2nccs2)=N[C@H]1c1ccc(F)cc1Br (stereo partly shown) [Example 9]
[II] CCOC(=O)C1=C(CN2CC(F)C(C)(C)C2CCC(=O)O)NC(c2nccs2)=N[C@H]1c1ccc(F)cc1Br (stereo partly shown) [Example 39]
Asked: // which entry has the larger Vd value, I or II ? When you have decided, please share the label of that item.
Given back: II

====

- PROTOCOL DETAILS: Test compounds' PK assay in ICR mice
- Format: in vivo
- ASSAY SETUP: mouse, plasma; ICR mice, iv, 2 mg/kg, AUC in 0-24 hours
QUANTITY MEASURED: AUC(0-t) (ng·h/mL)

As a guide, the following entries are already answered.
Lab note: measured AUC(0-t) of `CCOC(=O)C1=C(CN2CC(F)(F)C[C@H]2CCC(=O)O)NC(c2nccs2)=N[C@H]1c1ccc(F)cc1Br` was 3270

Record summary for CCOC(=O)C1=C(CN2CC(F)(F)C[C@H]2CC(C)C(=O)O)NC(c2nccs2)=N[C@H]1c1ccc(F)cc1Br (stereo partly shown) : reported AUC(0-t) = 2860

[A] CCOC(=O)C1=C(CN2CC(F)(F)C[C@H]2C(C)CC(=O)O)NC(c2nccs2)=N[C@H]1c1ccc(F)cc1Br (stereo partly shown)
[B] CCOC(=O)C1=C(CN2CC(F)C(C)(C)C2CCC(=O)O)NC(c2nccs2)=N[C@H]1c1ccc(F)cc1Br (stereo partly shown)
Asked: Hey, between A and B which has a smaller measured AUC(0-t)? Write down the label of the entry you select.
Given back: A

====

- PROTOCOL DETAILS: Test compounds' PK assay in ICR mice
- Assay type: in vivo
- ASSAY SETUP: mouse, plasma; ICR mice, iv, 2 mg/kg; read-out: Cmax
QUANTITY MEASURED: Cmax (ng/mL)

Briefly, Cmax measured for CCOC(=O)C1=C(CN2CC(F)(F)C[C@H]2CCC(=O)O)NC(c2nccs2)=N[C@H]1c1ccc(F)cc1Br [Example 6] : 6560

[1] CCOC(=O)C1=C(CN2CC(F)(F)C[C@H]2C(C)CC(=O)O)NC(c2nccs2)=N[C@H]1c1ccc(F)cc1Br (stereo partly shown) [Example 9]
[2] CCOC(=O)C1=C(CN2CC(F)C(C)(C)C2CCC(=O)O)NC(c2nccs2)=N[C@H]1c1ccc(F)cc1Br (stereo partly shown) [Example 39]
Asked: Pick the one with the larger Cmax: 1 vs 2 Identify your selection by its label.
Given back: 1

====

- PROTOCOL DETAILS: Test compounds' PK assay in ICR mice
- Type: in vivo
- ASSAY SETUP: mouse, plasma; ICR mice, iv, 2 mg/kg
QUANTITY MEASURED: clearance (L/h/kg)

The measured clearance associated with CCOC(=O)C1=C(CN2CC(F)(F)C[C@H]2CC(C)C(=O)O)NC(c2nccs2)=N[C@H]1c1ccc(F)cc1Br (stereo partly shown) reads 0.69

In plain terms, `CCOC(=O)C1=C(CN2CC(F)(F)C[C@H]2CCC(=O)O)NC(c2nccs2)=N[C@H]1c1ccc(F)cc1Br` has a documented clearance of 0.61

[A] CCOC(=O)C1=C(CN2CC(F)C(C)(C)C2CCC(=O)O)NC(c2nccs2)=N[C@H]1c1ccc(F)cc1Br (stereo partly shown)
[B] CCOC(=O)C1=C(CN2CC(F)(F)C[C@H]2C(C)CC(=O)O)NC(c2nccs2)=N[C@H]1c1ccc(F)cc1Br (stereo partly shown)
Asked: Kindly identify which of A and B has the larger recorded clearance value. Provide the label of your selected option as the answer.
Given back: B
